Recorded measurements of melting point, one per entry
property: melting point (°C)

- COc1nc(Cl)nc(N)c1C: 189
- CCOC(=O)C1=CC(C(=O)c2cc(C)ccc2O)=CN2CCc3c([nH]c4ccccc34)C12C(=O)OCC (stereo not given): 208

---

Recorded measurements of melting point, one per entry
property: melting point

- CC(C)(C)C(=O)C(=[N+]=[N-])S(=O)(=O)C1CCCCC1: 80.5 to 82 °C
- Cc1oc(-c2ccc(Cl)cc2)cc1C(=O)Nc1cc(Cl)ccc1-c1nnn[nH]1: 247 to 255 °C
- CS(=O)(=O)N[C@@H]1CCCC[C@H]1Nc1nc(Nc2ccc3c(c2)CCC(=O)CC3)ncc1Cl: 146 to 153 °C
- CC(=O)C1=C(O)C(C(=O)C=Cc2ccc(C)cc2)C(=O)OC1=O (stereo not given): 188 to 190 °C
- CCCn1c(=O)c2c(nc(/C=C/c3cc(OC)c(OC)c(OC)c3)n2C)n(CCC)c1=O: 168 to 169 °C
- C=CCCN1C(=O)C2C3CCC(O3)C2C1=O (stereo not given): 64 to 65 °C
- Cc1ccc(CI)cc1Cl: 88 °C
- CCc1coc(Cc2ccc([N+](=O)[O-])cc2)n1: 58 to 59 °C
- O=c1oc2c(O)cccc2c(OCCN2CCOCC2)c1-c1ccccc1: 190 to 191 °C
- CCCCCCCCCC(=O)N[C@@H](C)C(=O)N[C@@H](Cc1ccccc1)C(=O)OC: 120 to 122 °C
- COc1cc2ncnc(N3CCC(CCN4C=CC=NS4(=O)=O)CC3)c2cc1OC: 176 to 178 °C
- Cn1nnc(-c2ccc3c(ccn3-c3ccc(F)cc3)c2)n1: 131 to 133 °C
- O=c1[nH]c2ccccc2c2c(=O)n(-c3ccccc3)[nH]c12: > 260 °C
- CC(=O)NC1Cc2ccc(OC(=O)CCl)cc2C1 (stereo not given): 106 to 108 °C
- Cc1sc2c(Br)c3ccccc3c(-c3cc(C(C)C)c(OS(=O)(=O)c4ccc(C(=O)O)c(O)c4)c(C(C)C)c3)c2c1C: > 225 °C
- Cc1ccc(-c2coc3c(O)c(O)ccc3c2=O)cc1: 225 °C
- COc1ccc(Nc2nc(NC3CCCCCC3)nc(N3CCCC3)n2)cc1F: 79 °C
- CC(=O)n1cc(C2=CCN(C)CC2)c2cc(F)ccc21: 126 to 128 °C
- CC(C)(C)OC(=O)C(C1NC(C(=O)OCc2ccccc2)C2(CCCCC2)S1)N1C(=O)c2ccccc2C1=O (stereo not given): 165 to 166 °C
- CC(C)(C)c1cc(NC(=O)c2cncc3cc(Oc4cc(N)ncn4)ccc23)n(-c2ccc(F)cc2)n1: 124 to 126 °C
